System: CEM cells HIV-1 protection, formazan growth assay
assayDetails: NCI AIDS Antiviral Assay
EC50: recorded values

> print(dat)
                                   compound  recordedvalue
1  CC(=O)OCC(OC(C)=O)C(OC(C)=O)C(OC(C)=O)C(/C=N\Nc1nc2ccccc2c(=O)[nH]1)OC(C)=O (stereo not given)       > 200 µM
2  O=C1OC(=O)C2C3CC(C4N=NN(c5ccccc5)C34)C12 (stereo not given)       > 200 µM
3  CCN(CC)CCNc1ccc(CO)c2oc3ccc(O)cc3c(=O)c12       > 191 µM
4  O=c1[nH][nH]c(=O)c2nc(Nc3ccc(Cl)cc3)ncc12      > 34.7 µM
5             CCCCN(CCCC)c1cc(=O)nc2ccccn12       > 200 µM

Task: Field request: EC50 | item: `CCOC(=O)/C(=C\c1cccc(F)c1)P(=O)(OCC)OCC`
Result: > 57.5 µM

Task: Would you mind doing COc1cc2c(cc1OC(=O)CC(C)O)C1C(OC2=O)C(OC(C)=O)C=C2CCN(C)[C@H]21 (stereo not given in full) as well?
Result: > 56.2 µM

Task: Would you mind doing `Cc1ccc2nc(C=Nc3ccccc3Cl)cc(C)c2c1` as well?
Result: > 200 µM

Task: Would you mind doing CC(C)(C)[Si](C)(C)OCC1OC(n2ccc(=O)[nH]c2=O)C(O[Si](C)(C)C(C)(C)C)C1CC#N (stereo not given) as well?
Result: > 200 µM

Task: Would you mind doing `O=C(O)CSc1cc(-c2ccc(Cl)cc2)s[s+]1` as well?
Result: > 200 µM

This collection of values is drawn from PubChem BioAssay AID179.
